test system: spleen cells of C57BL/6 mouse and pancreatic cells of BALB/c mouse; assay: Lymphocyte mixed culture reaction (mouse MLR), uptake of 3H-TdR; format: cell-based; settings: Mus musculus, Lymphocyte, 50 h; sample concentration 10^-2 µg/ml; cultured for 42 hours, then 8 hours with 3H-TdR; read-out: Uptake of ^3H-TdR (% of control)
Catalogue of activity at 0.01 µg/mL readings, one per entry.
A number alone suffices; assume %.

Given the molecule CCCCCCCCCCCCCC(=O)N[C@@H](CO[C@H]1O[C@H](CO)[C@H](O)[C@H](O)[C@H]1O)[C@H](O)CCCCCCCCCCCCC [Compound 10] , what is its reported activity at 0.01 µg/mL?
157

Given the molecule CCCCCCCCCCCCCCCCCCCCCCCC(=O)N[C@@H](CO[C@H]1O[C@H](CO)[C@H](O)[C@H](O)[C@H]1O)[C@H](O)CCCCCCCCCCCCCCC [Compound 1] , what is its reported activity at 0.01 µg/mL?
136

Given the molecule CCCCCCCCCCCCCCCCCCCCCCCC(=O)N[C@@H](CO[C@H]1O[C@H](CO)[C@H](O)[C@H](O)[C@H]1O)[C@H](O)CCCCCCCCCCC [Compound 9] , what is its reported activity at 0.01 µg/mL?
176
